Sourced from patent US20110039762A1

test system: MRSA; experiment: Kill or inhibit growth/proliferation; morphology, biofilm and growth disruption (Tables 5, 6); type: cell-based, Methicillin-resistant Staphylococcus aureus; design: key: A: Peptide aggregates; B: Less hyphal formation; Clumps; Diffuse clumps and small polyps; F: Diffuse growth; H: Thin; I: Growth inhibition; Microcolony formation; Rippled; Small polyps; Thick; W: Halo formation on top, microlonies on bottom; note: test concentration or dose not given here

substance	Organism, effect
PF-408: peptide having multiple activities (YCVPLGNMGNMNNKIW; Peptide with targeting and/or antimicrobial activity)	MRSA (M)
PF-067: peptide having multiple activities (DLIVKVHICFVVKTASGYCYLNKREAQAAI; Peptide with targeting and/or antimicrobial activity)	MRSA (M)
